- testSystem: T1, human IgG4 (human, UniProt P01861-1 1-327 = IgG part)
- T1 construct: Calbiochem; plasma IgG4 in anisotropy studies, myeloma-derived (cat. 400126) in batch/column studies; also called hIgG4
- T1 sequence (P01861 other isoform, or with tags, fused parts or gaps): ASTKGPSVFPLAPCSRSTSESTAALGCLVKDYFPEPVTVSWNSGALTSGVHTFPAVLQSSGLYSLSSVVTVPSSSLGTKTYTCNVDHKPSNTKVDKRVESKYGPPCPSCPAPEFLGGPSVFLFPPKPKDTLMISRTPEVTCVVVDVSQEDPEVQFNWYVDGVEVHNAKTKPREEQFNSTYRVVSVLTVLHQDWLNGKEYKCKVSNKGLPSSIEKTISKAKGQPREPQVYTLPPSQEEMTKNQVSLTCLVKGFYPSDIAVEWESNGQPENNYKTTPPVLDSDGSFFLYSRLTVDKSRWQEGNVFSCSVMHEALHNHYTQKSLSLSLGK
- protocolText: fluorescence anisotropy; pH 5.7, 0.01 M Tris-acetate
Positions of bridges follow the written chain, without caps; N, C: chain ends.

- binder: "Ac-GDDHMCVYTTWGELIWCDNHEPGPEGGGK-NH2 (disulfide 6-17 (inferred), Synthetic disulfide-cyclised peptide) [DX249]"
  Kd, nM: 300

Origin of values: patent US20030199671A1
